# credit: patent US20130243743A1

Molecular target: T1, Growth and Differentiation Factor-11 (GDF11) (UniProt O95390 299-407)
T1 sequence (looked up): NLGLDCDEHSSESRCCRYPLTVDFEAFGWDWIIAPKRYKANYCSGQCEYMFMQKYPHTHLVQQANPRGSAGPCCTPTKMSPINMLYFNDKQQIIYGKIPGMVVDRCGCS
Test: cell-based or functional assay
observation.type: IC50, inhibition of ligand signalling, A-204 reporter gene assay (conditioned media) (µg/mL)

I. ActRIIB(20-134)-hFc (Fc fusion, not shown: a dimerising Fc or GST) GRGEAETRECIYYNANWELERTNQSGLERCEGEQDKRLHCYASWRNSSGTIELVKKGCWLDDFNCYDRQECVATEENPQVYFCCCEGNFCNERFTHLPEAGGPEVTYEPPPTAPT
II. ActRIIB(21-131)-hFc (Fc fusion, not shown: a dimerising Fc or GST) RGEAETRECIYYNANWELERTNQSGLERCEGEQDKRLHCYASWRNSSGTIELVKKGCWLDDFNCYDRQECVATEENPQVYFCCCEGNFCNERFTHLPEAGGPEVTYEPPPT
III. ActRIIB(20-131)-hFc (Fc fusion, not shown: a dimerising Fc or GST) GRGEAETRECIYYNANWELERTNQSGLERCEGEQDKRLHCYASWRNSSGTIELVKKGCWLDDFNCYDRQECVATEENPQVYFCCCEGNFCNERFTHLPEAGGPEVTYEPPPT
hey, can you rank those binders up there by IC50, inhibition of ligand signalling, A-204 reporter gene assay (conditioned media)? biggest number first please Form field (ranking): labels in requested order. III, II, I
(III: 0.183 µg/mL, II: 0.121 µg/mL, I: 0.045 µg/mL)
